Please respond with reported abundance fitness for every item in the list.
B1: Transcription intermediary factor 1-beta, residues 620 to 671; numbered along this chain, Q13263 (parent)
chain: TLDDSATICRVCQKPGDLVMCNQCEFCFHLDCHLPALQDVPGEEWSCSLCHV

- Variants of: B1
- METHOD: abundance fitness (aPCA) (normalised: wild type 0, dead -1); higher = more abundant; growth selection in yeast, the domain comes from the species named
- PARTICULARS: Homo sapiens
Numbers only.

As a guide, the following entries are already answered.
Form: variant = S48R ; abundance fitness = 0.105

Measured abundance fitness, T1A : 0.314

Note to self: abundance fitness recorded for V19A was -0.58

variant D39E , abundance fitness observed: 0.287

E44N yielded abundance fitness of -0.16

The variant listed as T7K has a reported abundance fitness of -0.022

abundance fitness recorded for this variant, F26G , is 0.121

L2R has a reported abundance fitness of -0.252

Record abundance fitness for all entries; do not skip any.
1. D39H
2. M20G
3. L30H
4. E44Y
5. M20E

OUT:
1: -0.268; 2: -0.29; 3: -0.194; 4: -0.143; 5: -0.304
